B1: PKD2L1 (parent)
chain: SGPEAARAGGWVSGEEFYMLTRRV

# Variants of: B1
# PROCEDURE_TEXT: protein stability index of a GFP-peptide fusion (GPS, HEK-293T) (PSI 1-6); higher = more stable;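 note: lentivirally expressed fusions sorted by FACS into six bins by GFP to DsRed ratio, PSI derived from sequencing read proportions per bin multiplied by bin number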
# CONDITIONS: c terminus: a fixed tail appended
# binarize protein stability index: threshold 3 inclusive, high side 1, low side 0

| MUTATION_LABEL | DISCRETE_LABEL |
| --- | --- |
| F17P | 1 |
| A5P | 0 |
| R22D | 1 |
| R7V | 0 |
